// reported pIC50 per item
measurementTarget: Protein kinase C eta type (Homo sapiens)
Sequence (P24723 whole entry): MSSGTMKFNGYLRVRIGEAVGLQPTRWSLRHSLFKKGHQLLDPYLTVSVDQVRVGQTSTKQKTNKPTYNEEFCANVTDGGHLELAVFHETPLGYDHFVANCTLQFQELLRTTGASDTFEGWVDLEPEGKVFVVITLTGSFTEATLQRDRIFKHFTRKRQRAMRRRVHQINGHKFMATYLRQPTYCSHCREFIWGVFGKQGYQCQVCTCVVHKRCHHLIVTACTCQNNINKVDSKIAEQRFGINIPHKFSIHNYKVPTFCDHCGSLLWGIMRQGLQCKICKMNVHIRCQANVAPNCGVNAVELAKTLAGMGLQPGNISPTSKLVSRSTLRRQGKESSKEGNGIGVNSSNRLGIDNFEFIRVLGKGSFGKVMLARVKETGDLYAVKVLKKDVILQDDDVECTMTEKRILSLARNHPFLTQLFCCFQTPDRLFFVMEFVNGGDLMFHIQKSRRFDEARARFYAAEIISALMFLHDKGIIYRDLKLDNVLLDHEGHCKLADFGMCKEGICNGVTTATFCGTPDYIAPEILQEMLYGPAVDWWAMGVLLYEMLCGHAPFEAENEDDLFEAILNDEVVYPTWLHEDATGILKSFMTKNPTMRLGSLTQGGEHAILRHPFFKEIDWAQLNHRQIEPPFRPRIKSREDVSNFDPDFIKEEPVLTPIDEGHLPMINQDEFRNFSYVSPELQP
protocolDetails: Inhibition of protein kinase C eta
pIC50: −log10 of the molar value.

Here's what some known entries look like.
> print(dat)
                                   compound  measurement
1  O=C(N[C@@H]1c2ccccc2CC1OC(=O)c1cc(O)c(C(=O)c2c(O)cccc2C(=O)O)c(O)c1)c1ccc(O)cc1 (mixture of isomers)       > 8.00
2  O=C(N[C@@H]1Cc2ccccc2C1OC(=O)c1cc(O)c(C(=O)c2c(O)cccc2C(=O)O)c(O)c1)c1ccc(O)cc1 (mixture of isomers)       > 7.60

Now for a further compound.
Ask: Form field: reported pIC50 of O=C(N[C@@H]1c2ccccc2C[C@@H]1OC(=O)c1cc(O)c(C(=O)c2c(O)cccc2C(=O)O)c(O)c1)c1ccc(O)cc1
Result: > 7.30
